System: SF-295 CNS
Assay Notes: NCI-60 one-dose screen, 48 h
Test Conditions: 10 µM unless noted
The panel holds about 83,000 compounds, 20% with a hit somewhere; the sample as a whole holds those more often. The source made the active and inactive calls. Rule for the calls: active = growth percent below 10; inactive = the rest.
Labels: 1.0 (active), 0.0 (inactive)

[[record]]
compound = "CSc1nc2sc3c(c2c(=O)n1-c1ccc(C(C)C)cc1)CCC(=O)C3"
assigned_label = 1.0

[[record]]
compound = "COc1cc(NCCCCN=C(N)NC(N)=NC(C)C)c2ncccc2c1"
assigned_label = 0.0

[[record]]
compound = "CCN(CC)CCCC(C)NCCCNc1cccc2cccnc12 (configuration not stated)"
assigned_label = 0.0

[[record]]
compound = "CCN(CC)CC(C)Nc1ccc([N+](=O)[O-])c2sc3ccccc3c(=O)c12 (configuration not stated)"
assigned_label = 0.0

[[record]]
compound = "COc1ccc(-c2cc(NC(=O)Nc3ccc(O)cc3)no2)cc1"
assigned_label = 0.0

[[record]]
compound = "COc1ccc2nc3cc(Cl)ccc3c(N3CCN(c4ccnc(N5CCOCC5)n4)CC3)c2c1"
assigned_label = 0.0

[[record]]
compound = "COc1ccc2nc3cc(Cl)ccc3c(N3CCN(c4nccc(NCc5ccccc5)n4)CC3)c2c1"
assigned_label = 0.0

[[record]]
compound = "Nc1cc2nc3ccccc3sc-2cc1=O"
assigned_label = 0.0

[[record]]
compound = "CCCCCCCCCCNC(=O)CCl"
assigned_label = 0.0

[[record]]
compound = "COc1cc(OC)c(/C=C/c2cc[n+](C)c3ccccc23)c(OC)c1"
assigned_label = 1.0

[[record]]
compound = "C/C(=C(/c1ccc(O)cc1)c1ccc(OCCN(C)C)cc1)c1ccccc1"
assigned_label = 0.0

[[record]]
compound = "O=C1/C(=C/c2ccc(Cl)c(Cl)c2)CN(C(=O)CCN2CCC(=NO)CC2)C/C1=C\\c1ccc(Cl)c(Cl)c1"
assigned_label = 1.0

[[record]]
compound = "ClC1=C2NC=NC2n2c(nnc2-c2ccc(Cl)cc2)N1 (configuration not stated)"
assigned_label = 0.0

[[record]]
compound = "CCCCOc1ccc(NC(=O)n2nc(NC(C)=O)c3cc(NC(C)=O)ccc32)cc1"
assigned_label = 0.0

[[record]]
compound = "COc1ccc2nc3cc(Cl)ccc3c(N3CCN(c4ccnc(N5CCN(C)CC5)n4)CC3)c2c1"
assigned_label = 0.0

[[record]]
compound = "CC1=C(NCCN2CCCC2)C(=O)c2c(OCc3cccc(Cl)c3)cccc2C1=O"
assigned_label = 0.0

[[record]]
compound = "CN1C2CCC1/C(=C\\c1ccc(Cl)cc1)C1=C2[C@@H](c2ccc(Cl)cc2)C(C#N)=C(N)O1 (some centres not stated)"
assigned_label = 0.0

